Origin of values: paper PMC11077774

B1: BicD2-CTD (C-terminal cargo-binding domain of human Bicaudal D2, residues 715-804) [human] / full-length GTP-bound Rab6a/Q72L with N-terminal GST tag [human] (parent complex)
chain 1: YENEKAMVTETMMKLRNELKALKEDAATFSSLRAMFATRCDEYITQLDEMQRQLAAAEDEKKTLNSLLRMAIQQKLALTQRLELLELDHE
chain 2: MSTGGDFGNPLRKFKLVFLGEQSVGKTSLITRFMYDSFDNTYQATIGIDFLSKTMYLEDRTVRLQLWDTAGLERFRSLIPSYIRDSTVAVVVYDITNVNSFQQTTKWIDDVRTERGSDVIIMLVGNKTDLADKRQVSIEEGERKAKELNVMFIETSAKAGYNVKQLFRRVAAALPGMESTQDRSREDMIDIKLEKPQEQPVSEGGCSC

# Variants of: B1
# Test Name: GST pull-down, SDS-PAGE band quantification; parent: 1; read off a plot
Recorded Metric: ratio to parent

(Q) Which ratio to parent reading was recorded for the variant chain 2 I79A ?
(A) ~0.1

Further cases:
(Q) Which ratio to parent reading was recorded for the variant chain 2 I83A ?
(A) ~0.02

(Q) Field entry: chain 2 T54A
(A) ~0.79
